B1: Hairpin Ribozyme (parent)
chain: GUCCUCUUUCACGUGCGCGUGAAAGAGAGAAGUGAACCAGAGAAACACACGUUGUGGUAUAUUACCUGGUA

Variants of: B1
assay: self-cleavage, relative activity (ratio to wild type); higher = more cleavage; co-transcriptional
Give measured self-cleavage for each item. Keep answers brief.

Req: Look up self-cleavage for this variant: C4U
Resp: 0.371

Req: Look up self-cleavage for this variant: A11C A26G
Resp: 0.645

Req: Look up self-cleavage for this variant: A47G U55A
Resp: 0.184

Req: Look up self-cleavage for this variant: U33C U55A
Resp: 0.0653

Req: Look up self-cleavage for this variant: U20C G32C
Resp: 0.0574

Req: Look up self-cleavage for this variant: G19U A26G
Resp: 0.849

Req: Look up self-cleavage for this variant: G42A A64U
Resp: 0.107

Req: Look up self-cleavage for this variant: G15U A43U
Resp: 0.104

Req: Look up self-cleavage for this variant: C10G C18A
Resp: 0.907

Req: Look up self-cleavage for this variant: C37A G42U
Resp: 0.165

Req: Look up self-cleavage for this variant: U7A A39G
Resp: 0.318

Req: Look up self-cleavage for this variant: C48A U58A
Resp: 0.0644

Req: Look up self-cleavage for this variant: A31U U70A
Resp: 0.0877

Req: Look up self-cleavage for this variant: G19U U53C
Resp: 0.952

Req: Look up self-cleavage for this variant: A28U G68A
Resp: 0.153

Req: Look up self-cleavage for this variant: G27A A36U
Resp: 0.198

Req: Look up self-cleavage for this variant: G13U U14C
Resp: 0.544

Req: Look up self-cleavage for this variant: A45G A64G
Resp: 0.1

Req: Look up self-cleavage for this variant: C4U A24C
Resp: 0.33

Req: Look up self-cleavage for this variant: C16A U55G
Resp: 0.232

Req: Look up self-cleavage for this variant: G34U A35G
Resp: 1.47

Req: Look up self-cleavage for this variant: G21C C46A
Resp: 0.0884

Provenance of the data: the RNAGym collection of RNA variant scans (doi:10.7554/elife.80360)
